tested on: biotinyl-Val-oxazolone; test: self-aminoacylation, catalytic enhancement (BVO) (fold over background); higher = more active; k-Seq, kA / k0A0; sequences stand for … in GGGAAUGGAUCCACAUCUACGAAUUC…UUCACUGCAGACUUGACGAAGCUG
Variants at the floor of the assay were thinned out.
assayMetric: self-aminoacylation

{"columns": ["sequence", "self-aminoacylation"],
 "data": [
  ["AUUACACUGGUCCUCGAGUGA [Fam2.1 aminoacylation ribozyme variant]", 2.32],
  ["AUUACCCUGAUCAUUGAGUGA [Fam2.1 aminoacylation ribozyme variant]", 5.87],
  ["CUACUUCAAAGAAUCGGUUUG [Fam1A.1 aminoacylation ribozyme variant]", 0.785],
  ["AUUACCCUGGUCGUCGCGUGA [Fam2.1 aminoacylation ribozyme variant]", 4.34]
]}

Would you mind listing self-aminoacylation for each of the following sequences?
1. CUUACCCCGGUCAUCGAGUGA [Fam2.1 aminoacylation ribozyme variant]
2. AAGUAUGCUAAUAGUAGCAAG [Fam3.1 aminoacylation ribozyme variant]
3. CUAAUUCACACAAUCGGUCUG [Fam1A.1 aminoacylation ribozyme variant]
4. CCACACUUCAAGGUAUCGGUC [Fam1B.1 aminoacylation ribozyme variant]
5. AUUACCCUGGUCACAGAGUGA [Fam2.1 aminoacylation ribozyme variant]

1: 3.92; 2: 1.46; 3: 0.771; 4: 0.995; 5: 4.01

###

test system: biotinyl-Leu-oxazolone; assay: self-aminoacylation, catalytic enhancement (BLO) (fold over background); higher = more active; k-Seq, kA / k0A0; sequences stand for … in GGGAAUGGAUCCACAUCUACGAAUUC…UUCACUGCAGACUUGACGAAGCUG
This sample holds only a part of the variants without activity.
Hi, to clarify the labels: met covers self-aminoacylation from 4 upward, not met covers anything below 4.

{"columns": ["sequence", "class"],
 "data": [
  ["CCACUCUUCAAGCAGUCGGUC [Fam1B.1 aminoacylation ribozyme variant]", "not met"],
  ["AUUACCCGGGACAUCGAGUGA [Fam2.1 aminoacylation ribozyme variant]", "met"],
  ["CCACAAUUCAAGCAAUCGUUC [Fam1B.1 aminoacylation ribozyme variant]", "not met"]
]}

Item AUCACCCUGGCCAUCGAGUGA [Fam2.1 aminoacylation ribozyme variant] with self-aminoacylation of 4 or above?
met

Item CCACACUUCAAGCAUUCGGUG [Fam1B.1 aminoacylation ribozyme variant] with self-aminoacylation of 4 or above?
met

###

system: biotinyl-Phe-oxazolone; assay: self-aminoacylation, catalytic enhancement (BFO) (fold over background); higher = more active; k-Seq, kA / k0A0; sequences stand for … in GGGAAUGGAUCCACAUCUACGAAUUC…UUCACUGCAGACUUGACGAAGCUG
Fewer inactive variants are shown than the library holds.
assayMetric: self-aminoacylation
Answers are plain numbers.

Worked examples, 4 sequences total:
{"columns": ["sequence", "measured"],
 "data": [
  ["AUUAACCUAGGUCAUCGGGUU [Fam2.2 aminoacylation ribozyme variant]", 40.5],
  ["AUUACCUUGUUCAUCGAGUGA [Fam2.1 aminoacylation ribozyme variant]", 26.1],
  ["AUGUGUGCUAAUAGUCGCAAG [Fam3.1 aminoacylation ribozyme variant]", 3.53],
  ["CAGUUUGCUAAUAGUCGCGAG [Fam3.1 aminoacylation ribozyme variant]", 12.2]
]}

Would you mind listing self-aminoacylation for each of the following sequences?
1. AUUACCCAGAUCAUCGAGUGA [Fam2.1 aminoacylation ribozyme variant]
2. GUACUUCAAACAAUCGGUCCG [Fam1A.1 aminoacylation ribozyme variant]
3. CUACUUCUAAUAAUCGGUCUG [Fam1A.1 aminoacylation ribozyme variant]

15.2
6.11
1.02

Would you mind listing self-aminoacylation for each of the following sequences?
1. CCACACUUCACGCAACCGGUC [Fam1B.1 aminoacylation ribozyme variant]
2. AUACUUCAAACAAUCUGUCUG [Fam1A.1 aminoacylation ribozyme variant]
3. AUUAACCUAGGUCAGCGGGUG [Fam2.2 aminoacylation ribozyme variant]
4. CUACGUCAAACUAUCGGUCUG [Fam1A.1 aminoacylation ribozyme variant]

1: 0.978; 2: 2.2; 3: 19; 4: 5.88

Would you mind listing self-aminoacylation for each of the following sequences?
1. AUUCACCAAGGUCACCGGGUG [Fam2.2 aminoacylation ribozyme variant]
2. AUGACCCUCGUCAUCGAGUGA [Fam2.1 aminoacylation ribozyme variant]
3. CCACACUUCAAACAAACGGUC [Fam1B.1 aminoacylation ribozyme variant]
4. AUUACCCUGGUCAUUCAGUGA [Fam2.1 aminoacylation ribozyme variant]
5. CCACAUUUCAAGCAAUCGGUG [Fam1B.1 aminoacylation ribozyme variant]

1. 55.5
2. 14.7
3. 0.66
4. 14.1
5. 59.1

Would you mind listing self-aminoacylation for each of the following sequences?
1. CCACACUUCUAGCAAUCUGUC [Fam1B.1 aminoacylation ribozyme variant]
2. AUUAACCUGGUCAUCUAGUGA [Fam2.1 aminoacylation ribozyme variant]

[0.693, 52.4]
